Target: AsPC-1 HiBiT-KRASG12D (Homo sapiens, UniProt P01116, G12D)
Construct: insert the HiBiT tag onto the N-terminus of one or more of the endogenous KRAS alleles; endogenous in cells; host or cells: AsPC-1 (ATCC CRL-1682), CRISPR-Cas9 knock-in clone, one tagged allele
Sequence (P01116 1-188 isoform P01116-2 G12D): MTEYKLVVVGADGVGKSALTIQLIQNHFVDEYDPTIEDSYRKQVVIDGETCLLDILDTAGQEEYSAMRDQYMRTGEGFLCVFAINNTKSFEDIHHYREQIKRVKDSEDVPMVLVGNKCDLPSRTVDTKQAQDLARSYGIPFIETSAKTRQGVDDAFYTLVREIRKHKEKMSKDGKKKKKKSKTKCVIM
Experiment: HiBiT degradation assay (G12D), AsPC-1 HiBiT-KRASG12D cells
Format: cell-based
Conditions: ASPC1, AsPC-1 HiBiT-KRASG12D cells, 24 hours treatment, maximum degradation observed

Molecule: C#Cc1c(F)ccc2cc(O)cc(-c3ncc4c(N5CC6CCC(C5)N6)nc(OCCN5CCC(F)(CN6CCN(c7cc([C@@H](C(=O)N8C[C@H](O)C[C@H]8C(=O)N[C@@H](C)c8ccc(-c9ccnn9C)cc8)C(C)C)on7)CC6)CC5)nc4c3F)c12
Measurement target: AsPC-1 HiBiT-KRASG12D (Homo sapiens, UniProt P01116, G12D)
Dmax: 20 to 60%

Molecule: Cc1ncsc1-c1ccc([C@H](C)NC(=O)[C@@H]2C[C@@H](O)CN2C(=O)[C@@H](c2cc(N3CCN(C(=O)OC[C@H]4CC[C@]5(COc6nc(N7CC8CCC(C7)N8)c7cnc(-c8cccc9ccc(F)c(F)c89)c(F)c7n6)CCCN45)CC3)no2)C(C)C)cc1 (relative stereo)
Measurement target: AsPC-1 HiBiT-KRASG12D (Homo sapiens, UniProt P01116, G12D)
Dmax: 20 to 60%

Molecule: CCc1cccc2cc(O)cc(-c3ncc4c(N5CC6CCC(C5)N6)nc(OCCN5CCC(C(C)(C)N6CCN(c7cc([C@H](C(=O)N8C[C@H](O)C[C@H]8C(=O)N[C@@H](C)c8ccc(-c9scnc9C)cc8)C(C)C)on7)CC6)CC5)nc4c3F)c12 [Compound 186]
Measurement target: AsPC-1 HiBiT-KRASG12D (Homo sapiens, UniProt P01116, G12D)
Dmax: 80 to 100%

Molecule: CCc1cccc2cc(O)cc(-c3ncc4c(N5CC6CCC(C5)N6)nc(OCCN5CCC(F)(CN6CCN(c7cc([C@H](C(=O)N8C[C@H](O)C[C@H]8C(=O)N[C@@H](C)c8ccc(-c9scnc9C)cc8)C(C)C)on7)CC6)CC5)nc4c3F)c12
Measurement target: AsPC-1 HiBiT-KRASG12D (Homo sapiens, UniProt P01116, G12D)
Dmax: 80 to 100%

Molecule: C#Cc1c(F)ccc2cc(O)cc(-c3ncc4c(N5CC6CCC(C5)N6)nc(OC[C@]56CCCN5[C@H](COC(=O)N5CC(Oc7cc([C@H](C(=O)N8C[C@H](O)C[C@H]8C(=O)N[C@@H](C)c8ccc(-c9scnc9C)cc8)C(C)C)on7)C5)CC6)nc4c3F)c12
Measurement target: AsPC-1 HiBiT-KRASG12D (Homo sapiens, UniProt P01116, G12D)
Dmax: 80 to 100%

Molecule: C#Cc1c(F)ccc2cc(O)cc(-c3ncc4c(N5CC6CCC(C5)N6)nc(OCCN5CCC(C6CCN(c7cc([C@@H](C(=O)N8C[C@H](O)C[C@H]8C(=O)N[C@@H](C)c8ccc(-c9scnc9C)cc8)C(C)C)on7)CC6)CC5)nc4c3F)c12
Measurement target: AsPC-1 HiBiT-KRASG12D (Homo sapiens, UniProt P01116, G12D)
Dmax: 60 to 80%

Molecule: CCc1cccc2cc(O)cc(-c3ncc4c(N5CC6CCC(C5)N6)nc(OCCN5CCC(COc6cc([C@H](C(=O)N7C[C@H](O)C[C@H]7C(=O)N[C@@H](C)c7ccc(-c8ccnn8C)cc7)C(C)C)on6)CC5)nc4c3F)c12 (relative stereo)
Measurement target: AsPC-1 HiBiT-KRASG12D (Homo sapiens, UniProt P01116, G12D)
Dmax: 80 to 100%

Molecule: C#Cc1cccc2cc(O)cc(-c3ncc4c(N5CC6CCC(C5)N6)nc(OCCN5CCC(COc6cc([C@H](C(=O)N7C[C@H](O)C[C@H]7C(=O)N[C@@H](C)c7ccc(-c8scnc8C)cc7)C(C)C)on6)CC5)nc4c3F)c12
Measurement target: AsPC-1 HiBiT-KRASG12D (Homo sapiens, UniProt P01116, G12D)
Dmax: 80 to 100%

Molecule: CCc1cccc2cc(O)cc(-c3ncc4c(N5CC6CCC(C5)N6)nc(OCCN5CCC(OC6CN(c7cc([C@H](C(=O)N8C[C@H](O)C[C@H]8C(=O)N[C@@H](C)c8ccc(-c9scnc9C)cc8)C(C)C)on7)C6)CC5)nc4c3F)c12
Measurement target: AsPC-1 HiBiT-KRASG12D (Homo sapiens, UniProt P01116, G12D)
Dmax: 80 to 100%

Molecule: CCc1cccc2cc(O)cc(-c3ncc4c(N5CC6CCC(C5)N6)nc(OCCN5C[C@@H]6CN(c7cc([C@H](C(=O)N8C[C@H](O)C[C@H]8C(=O)N[C@@H](C)c8ccc(-c9scnc9C)cc8)C(C)C)on7)C[C@H]6C5)nc4c3F)c12 (relative stereo)
Measurement target: AsPC-1 HiBiT-KRASG12D (Homo sapiens, UniProt P01116, G12D)
Dmax: 80 to 100%

Molecule: CCc1cccc2cc(O)cc(-c3ncc4c(N5CC6CCC(C5)N6)nc(OC[C@]56CCCN5[C@H](COC(=O)N5CCN(c7cc([C@H](C(=O)N8C[C@H](O)C[C@H]8C(=O)N[C@@H](C)c8ccc(-c9scnc9C)cc8)C(C)C)on7)C[C@@H]5C)CC6)nc4c3F)c12
Measurement target: AsPC-1 HiBiT-KRASG12D (Homo sapiens, UniProt P01116, G12D)
Dmax: 80 to 100%

Molecule: CCc1cccc2cc(O)cc(-c3ncc4c(N5CC6CCC(C5)N6)nc(OC[C@@H]5CC[C@@H](COC(=O)N6CCN(c7cc([C@H](C(=O)N8C[C@H](O)C[C@H]8C(=O)N[C@@H](C)c8ccc(-c9scnc9C)cc8)C(C)C)on7)CC6)N5C)nc4c3F)c12
Measurement target: AsPC-1 HiBiT-KRASG12D (Homo sapiens, UniProt P01116, G12D)
Dmax: 80 to 100%

Molecule: CCc1cccc2cc(O)cc(-c3ncc4c(N5CC6CCC(C5)N6)nc(OCCN5CCC(Oc6cc([C@@H](C(=O)N7C[C@H](O)C[C@H]7C(=O)N[C@@H](C)c7ccc(-c8scnc8C)cc7)C(C)C)on6)CC5)nc4c3F)c12 (relative stereo)
Measurement target: AsPC-1 HiBiT-KRASG12D (Homo sapiens, UniProt P01116, G12D)
Dmax: < 20%

Molecule: C#Cc1c(F)ccc2cc(O)cc(-c3ncc4c(N5CC6CCC(C5)N6)nc(OCCN5CCC(CC6CN(c7cc([C@H](C(=O)N8C[C@H](O)C[C@H]8C(=O)N[C@@H](C)c8ccc(-c9scnc9C)cc8)C(C)C)on7)C6)CC5)nc4c3F)c12 (single isomer, unassigned)
Measurement target: AsPC-1 HiBiT-KRASG12D (Homo sapiens, UniProt P01116, G12D)
Dmax: 80 to 100%

Molecule: CCc1cccc2cc(O)cc(-c3ncc4c(N5CC6CCC(C5)N6)nc(OC[C@]56CCCN5[C@H](COC(=O)N5CCN(c7cc([C@@H](C(=O)N8C[C@H](O)C[C@H]8C(=O)N[C@@H](C)c8ccc(-c9scnc9C)cc8)C(C)C)on7)[C@@H](C)C5)CC6)nc4c3F)c12
Measurement target: AsPC-1 HiBiT-KRASG12D (Homo sapiens, UniProt P01116, G12D)
Dmax: < 20%
